FYI, the data here is from ChEMBL document CHEMBL4334548.

Assay: Oral bioavailability in Sprague-Dawley rat at 2 mg/kg
Type: ADME, organism-based
Details: Sprague-Dawley, in vivo
readout-label: bioavailability (%)

Past entries and their recorded results:
{"columns": ["given-smiles", "bioavailability (%)"],
 "data": [
  ["O=C(NC1CCN(S(=O)(=O)C[C@H]2CC[C@H](NCc3ccccc3)CC2)CC1)c1cc(C2CC2)on1", 79],
  ["O=C(NC1CCN(S(=O)(=O)C[C@H]2CC[C@H](NCCCC(F)(F)F)CC2)CC1)c1cc(C2CC2)on1", 79],
  ["O=C(NC1CCN(S(=O)(=O)C[C@H]2CC[C@H](NCc3ccc(Cl)cc3)CC2)CC1)c1cc(C2CC2)on1", 70]
]}

(P) O=C(NC1CCN(S(=O)(=O)[C@H]2CC[C@H](NCCCC(F)(F)F)CC2)CC1)c1cc(C2CC2)on1
(Q) O=C(NC1CCN(S(=O)(=O)C2CCNCC2)CC1)c1cc(C2CC2)on1
(R) O=C(NC1CCN(S(=O)(=O)C[C@H]2CC[C@H](NCc3ccc(F)cn3)CC2)CC1)c1cc(C2CC2)on1
### Prompt Descending sort on bioavailability required. Reply with the item labels sorted in the order that was asked for.
### Response P, R, Q

====

Assay: Clearance in Sprague-Dawley rat at 0.5 mg/kg, iv or 2 mg/kg, po
Format: ADME, organism-based
Settings: in vivo
readout-label: clearance (mL/min/kg)

Some solved cases for reference:
{"columns": ["given-smiles", "clearance, mL/min/kg"],
 "data": [
  ["O=C(NC1CCN(S(=O)(=O)c2ccc(CN3CCCC3)cc2)CC1)c1cc(C2CC2)on1", 68],
  ["NCc1ccc(S(=O)(=O)N2CCC(NC(=O)c3cc(C4CC4)on3)CC2)cc1", 311]
]}

(1) O=C(NC1CCN(S(=O)(=O)C[C@H]2CC[C@H](NCCCC(F)(F)F)CC2)CC1)c1cc(C2CC2)on1
(2) O=C(NC1CCN(S(=O)(=O)C[C@H]2CC[C@H](NCc3ccccc3)CC2)CC1)c1cc(C2CC2)on1
(3) O=C(NC1CCN(S(=O)(=O)C2CCNCC2)CC1)c1cc(C2CC2)on1
### Prompt Please give the order of these compounds when sorted by clearance, largest value leading. Reply: labels, ordered per the request.
### Response 2, 3, 1
(2: 90 mL/min/kg, 3: 37 mL/min/kg, 1: 20 mL/min/kg)

====

Test: Solubility of compound by CLND method
Assay type: physicochemical
readout-label: solubility kinetic (µM)

{"columns": ["given-smiles", "solubility kinetic (µM)"],
 "data": [
  ["CN[C@H]1CC[C@H](CS(=O)(=O)N2CCC(NC(=O)c3cc(C4CC4)on3)CC2)CC1", 297]
]}

(I) O=C(NC1CCN(S(=O)(=O)c2ccc(CN3CCCC3)cc2)CC1)c1cc(C2CC2)on1
(II) O=C(NC1CCN(S(=O)(=O)C[C@H]2CC[C@H](NCc3ccccc3Cl)CC2)CC1)c1cc(C2CC2)on1
(III) CC(C)(C)CCN[C@H]1CC[C@H](CS(=O)(=O)N2CCC(NC(=O)c3cc(C4CC4)on3)CC2)CC1
(IV) CCN[C@H]1CC[C@H](CS(=O)(=O)N2CCC(NC(=O)c3cc(C4CC4)on3)CC2)CC1
(V) CN1CCC(S(=O)(=O)N2CCC(NC(=O)c3cc(C4CC4)on3)CC2)CC1
### Prompt Sort the compounds on solubility kinetic; start with the lowest figure. # the answer lists labels in the order requested
### Response II, III, I, IV, V

(1) CCN(CCCC(F)(F)F)[C@H]1CC[C@H](CS(=O)(=O)N2CCC(NC(=O)c3cc(C4CC4)on3)CC2)CC1
(2) CC(C)CN[C@H]1CC[C@H](CS(=O)(=O)N2CCC(NC(=O)c3cc(C4CC4)on3)CC2)CC1
(3) O=C(NC1CCN(S(=O)(=O)C[C@H]2CC[C@H](NCc3ccc(Cl)cc3)CC2)CC1)c1cc(C2CC2)on1
(4) O=C(NC1CCN(S(=O)(=O)C[C@H]2CC[C@H](NCc3cccnc3)CC2)CC1)c1cc(C2CC2)on1
(5) CN(CCCC(F)(F)F)[C@H]1CC[C@H](CS(=O)(=O)N2CCC(NC(=O)c3cc(C4CC4)on3)CC2)CC1
### Prompt # desc sort on solubility kinetic across 5 compounds Would you mind listing the labels in the order asked for?
### Response 2, 4, 1, 5, 3
(2: 434 µM, 4: 194 µM, 1: 53 µM, 5: 14 µM, 3: 6 µM)

====

Experiment: Permeability of compound
Type: ADME
Details: not told; read-out: permeability
readout-label: Papp (×10⁻⁶ cm/s)

The examples below pair each entry with its known result.
{"columns": ["given-smiles", "Papp, ×10⁻⁶ cm/s"],
 "data": [
  ["CCN1CCC(S(=O)(=O)N2CCC(NC(=O)c3cc(C4CC4)on3)CC2)CC1", 5.2],
  ["CN1CCC(S(=O)(=O)N2CCC(NC(=O)c3cc(C4CC4)on3)CC2)CC1", 5.6]
]}

(P) NCc1ccc(S(=O)(=O)N2CCC(NC(=O)c3cc(C4CC4)on3)CC2)cc1
(Q) O=C(NC1CCN(S(=O)(=O)C[C@H]2CC[C@H](NCc3ccccc3F)CC2)CC1)c1cc(C2CC2)on1
### Prompt Would you let me know which has the greater Papp value, P or Q ? Reply with the label of the item you choose.
### Response Q
(Q: 32 ×10⁻⁶ cm/s, P: 5.2 ×10⁻⁶ cm/s)

====

Assay: Solubility of compound by CLND method
Assay type: physicochemical
readout-label: solubility kinetic (µM)

Example cases with answers are listed next.
{"columns": ["compound", "solubility kinetic [µM]"],
 "data": [
  ["O=C(NC1CCN(S(=O)(=O)C[C@H]2CC[C@H](NCc3ccc(F)cn3)CC2)CC1)c1cc(C2CC2)on1", 141],
  ["O=C(NC1CCN(S(=O)(=O)CCCN2CCCC2)CC1)c1cc(C2CC2)on1", 410],
  ["O=C(NC1CCN(S(=O)(=O)C[C@H]2CC[C@H](NCc3cccc(Cl)c3)CC2)CC1)c1cc(C2CC2)on1", 4],
  ["O=C(NC1CCN(S(=O)(=O)c2ccc(CN3CCC3)cc2)CC1)c1cc(C2CC2)on1", 302],
  ["O=C(NC1CCN(S(=O)(=O)C2CCNC2)CC1)c1cc(C2CC2)on1 (stereo not drawn)", 406],
  ["NCc1ccc(S(=O)(=O)N2CCC(NC(=O)c3cc(C4CC4)on3)CC2)cc1", 295]
]}

(a) O=C(NC1CCN(S(=O)(=O)C[C@H]2CC[C@H](NCCCC(F)(F)F)CC2)CC1)c1cc(C2CC2)on1
(b) O=C(NC1CCN(S(=O)(=O)C[C@H]2CC[C@H](NCc3ccncc3)CC2)CC1)c1cc(C2CC2)on1
(c) N[C@H]1CC[C@H](CS(=O)(=O)N2CCC(NC(=O)c3cc(C4CC4)on3)CC2)CC1
### Prompt Hey, quick one: sort these by solubility kinetic, low to high? Kindly provide the labels arranged according to the requested ordering.
### Response a, b, c
(a: 9 µM, b: 26 µM, c: 297 µM)

(1) O=C(NC1CCN(S(=O)(=O)C[C@H]2CC[C@H](NCc3ccc(Cl)cn3)CC2)CC1)c1cc(C2CC2)on1
(2) CN(C)[C@H]1CC[C@H](CS(=O)(=O)N2CCC(NC(=O)c3cc(C4CC4)on3)CC2)CC1
### Prompt Which value of solubility kinetic is smaller, the one for 1 or the one for 2 ? Returns: label corresponding to the selected item.
### Response 1
(1: 14 µM, 2: 126 µM)

(1) CN(C)Cc1ccc(S(=O)(=O)N2CCC(NC(=O)c3cc(C4CC4)on3)CC2)cc1
(2) NC[C@H]1CC[C@H](S(=O)(=O)N2CCC(NC(=O)c3cc(C4CC4)on3)CC2)CC1
### Prompt I'm curious, which of these has a smaller solubility kinetic number: 1 or 2 ? Selection: enter the item's label.
### Response 1
(1: 130 µM, 2: 479 µM)

(A) N[C@H]1CC[C@H](S(=O)(=O)N2CCC(NC(=O)c3cc(C4CC4)on3)CC2)CC1
(B) Cc1cccc(CN[C@H]2CC[C@H](CS(=O)(=O)N3CCC(NC(=O)c4cc(C5CC5)on4)CC3)CC2)c1
(C) Cc1ccc(CN[C@H]2CC[C@H](CS(=O)(=O)N3CCC(NC(=O)c4cc(C5CC5)on4)CC3)CC2)nc1
### Prompt Order the records by solubility kinetic, with each subsequent value no larger than the one before. // format: requested-order list of labels
### Response A, C, B

(A) CCCCN[C@H]1CC[C@H](CS(=O)(=O)N2CCC(NC(=O)c3cc(C4CC4)on3)CC2)CC1
(B) O=C(NC1CCN(S(=O)(=O)C[C@H]2CC[C@H](NCc3cncc(F)c3)CC2)CC1)c1cc(C2CC2)on1
### Prompt Hey, which is lower on measured solubility kinetic, A or B ? Returns: label corresponding to the selected item.
### Response B
(B: 12 µM, A: 234 µM)
